Target: T1, HPV11 L1 protein (human papillomavirus type 11, UniProt P04012 1-501)
T1 construct: Full-length HPV11 L1 DNA amplified from pVL11L1
T1 sequence: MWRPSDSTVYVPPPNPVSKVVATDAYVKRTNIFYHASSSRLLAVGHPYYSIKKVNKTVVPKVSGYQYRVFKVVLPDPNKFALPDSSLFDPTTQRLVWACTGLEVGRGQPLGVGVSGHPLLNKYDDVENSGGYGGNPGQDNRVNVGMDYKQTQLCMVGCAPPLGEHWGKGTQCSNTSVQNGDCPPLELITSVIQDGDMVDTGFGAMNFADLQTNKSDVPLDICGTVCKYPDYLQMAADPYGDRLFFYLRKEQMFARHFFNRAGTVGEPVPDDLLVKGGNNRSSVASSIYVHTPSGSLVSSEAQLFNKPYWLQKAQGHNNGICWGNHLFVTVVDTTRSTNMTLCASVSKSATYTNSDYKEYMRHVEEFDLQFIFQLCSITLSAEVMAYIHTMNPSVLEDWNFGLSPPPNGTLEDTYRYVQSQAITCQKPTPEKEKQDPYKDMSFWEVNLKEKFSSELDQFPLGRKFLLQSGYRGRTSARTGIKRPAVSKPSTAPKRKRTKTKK
Test: co-expression in E. coli, glutathione sepharose eluate, SDS-PAGE

>  <binder>
HPV11 GST-L2 fusion protein, L2 amino acids 346-439 (other, also called pXA/BN-HPV11L2/346-439; not shown: glutathione-S-transferase (GST) fusion partner from vector pXA/BN (multiple cloning site of pGEX-4T-2); thrombin-cleavab) DIYAEPFDPIPDPVQHSVTQSYLTSTPNTLSQSWGNTTVPLSIPSDWFVQSGPDITFPTASMGTPFSPVTPALPTGPVFITGSDFYLHPTWYFA

>  <binding result>
binds

$$$$
>  <binder>
HPV11 GST-L2 fusion protein, L2 amino acids 157-455 (other, also called pXA/BN-HPV11L2/157-455; not shown: glutathione-S-transferase (GST) fusion partner from vector pXA/BN (multiple cloning site of pGEX-4T-2); thrombin-cleavab) PLFTEPSVIQPQPPVEASGHILISAPTITSQHVEDIPLDTFVVSSSDSGPTSSTPLPRAFPRPRVGLYSRALQQVQVTDPAFLSTPQRLVTYDNPVYEGEDVSLQFTHESIHNAPDEAFMDIIRLHRPAITSRRGLVRFSRIGQRGSMYTRSGQHIGARIHYFQDISPVTQAAEEIELHPLVAAENDTFDIYAEPFDPIPDPVQHSVTQSYLTSTPNTLSQSWGNTTVPLSIPSDWFVQSGPDITFPTASMGTPFSPVTPALPTGPVFITGSDFYLHPTWYFARRRRKRIPLFFTDVAA

>  <binding result>
binds

$$$$
>  <binder>
HPV11 GST-L2 fusion protein, L2 amino acids 346-455 (other, also called pXA/BN-HPV11L2/346-455; not shown: glutathione-S-transferase (GST) fusion partner from vector pXA/BN (multiple cloning site of pGEX-4T-2); thrombin-cleavab) DIYAEPFDPIPDPVQHSVTQSYLTSTPNTLSQSWGNTTVPLSIPSDWFVQSGPDITFPTASMGTPFSPVTPALPTGPVFITGSDFYLHPTWYFARRRRKRIPLFFTDVAA

>  <binding result>
binds

$$$$
>  <binder>
HPV11 GST-L2 fusion protein, L2 amino acids 157-309 (other, also called pXA/BN-HPV11L2/157-309; not shown: glutathione-S-transferase (GST) fusion partner from vector pXA/BN (multiple cloning site of pGEX-4T-2); thrombin-cleavab) PLFTEPSVIQPQPPVEASGHILISAPTITSQHVEDIPLDTFVVSSSDSGPTSSTPLPRAFPRPRVGLYSRALQQVQVTDPAFLSTPQRLVTYDNPVYEGEDVSLQFTHESIHNAPDEAFMDIIRLHRPAITSRRGLVRFSRIGQRGSMYTRSG

>  <binding result>
no binding

$$$$
>  <binder>
SGPDITFPTASMGTPFSPVTPALPTGPVFITGSDFYLHPTWYFA (other, also called pXA/BN-HPV11L2/396-439; not shown: glutathione-S-transferase (GST) fusion partner from vector pXA/BN (multiple cloning site of pGEX-4T-2); thrombin-cleavab) [HPV11 GST-L2 fusion protein, L2 amino acids 396-439]

>  <binding result>
binds

$$$$
>  <binder>
HPV11 GST-L2 fusion protein, L2 amino acids 1-156 (other, also called pXA/BN-HPV11L2/1-156; not shown: glutathione-S-transferase (GST) fusion partner from vector pXA/BN (multiple cloning site of pGEX-4T-2); thrombin-cleavab) MKPRARRRKRASATQLYQTCKATGTCPPDVIPKVEHTTIADQILKWGSLGVFFGGLGIGTGAGSGGRAGYIPLGSSPKPAITGGPAARPPVLVEPVAPSDPSIVSLIEESAIINAGAPEVVPPTQGGFTITSSESTTPAILDVSVTNHTTTSVFQN

>  <binding result>
no binding

$$$$
